assay: Assessment of brain penetration in rats; type: in vivo; conditions: rat, plasma, sc; Wistar rats, 10 mg/kg subcutaneously, 7 hours; read-out: total plasma concentration
QUANTITY_NAME: concentration at 7 h (µg/mL)

{"COMPOUND": "Cc1cnc(-c2cc(N3CCN(C(=O)CCS(C)(=O)=O)CC3)ncc2Cl)c(C)c1 [Example A-116]", "QUANTITY_NAME": "concentration at 7 h", "MEASURED_NUMBER": 0.287}

###

assay: Assessment of brain penetration in rats; type: in vivo; settings: rat, CSF, sc; Wistar rats, 10 mg/kg subcutaneously, 4 hours; read-out: CSF concentration
QUANTITY_NAME: concentration at 4 h

{"SMILES_REPR": "Cc1cnc(-c2cc(N3CCN(C(=O)CCS(C)(=O)=O)CC3)ncc2Cl)c(C)c1", "RESULT": "72.1 ng/mL"}
